- TARGET ENTITY: PSMA (Homo sapiens (Human))
- TEST NAME: NAALADase assay: PSMA inhibitory activity, fluorescence-based Amplex Red Glutamic Acid assay, lysates of LNCaP cell extracts
- PARTICULARS: Table 3
READOUT TYPE: IC50 (nM)
One number for each entry, in nM.

O=C(O)CC[C@H](NC(=O)O[C@H](CCNC(=O)c1ccc(F)cc1)C(=O)O)C(=O)O [XY-17]	4900

Each of the following entries comes with a recorded value; kindly state IC50 for each.
1. O=C(O)CC[C@H](NC(=O)O[C@@H](CCCCNC(=O)c1ccc2ccccc2c1)C(=O)O)C(=O)O [XY-21]
2. O=C(O)CC[C@H](NC(=O)O[C@@H](CCCCNC(=O)c1ccc(I)cc1)C(=O)O)C(=O)O [XY-26]
3. O=C(O)CC[C@H](NC(=O)O[C@@H](CCCCNC(=O)c1ccc(SCc2ccc(F)cc2)cc1)C(=O)O)C(=O)O [XY-39]
4. COc1ccc(C(=O)NCCCC[C@H](OC(=O)N[C@@H](CCC(=O)O)C(=O)O)C(=O)O)cc1 [XY-27]
5. O=C(O)CC[C@H](NC(=O)O[C@@H](CCCCNC(=O)c1ccc(SCCF)cc1)C(=O)O)C(=O)O [XY-38]
6. COc1ccc2cc(C(=O)NCCCC[C@H](OC(=O)N[C@@H](CCC(=O)O)C(=O)O)C(=O)O)ccc2c1 [XY-22]
7. O=C(O)CC[C@H](NC(=O)O[C@@H](CCCCNC(=O)c1ccc(-c2ccccc2)cc1F)C(=O)O)C(=O)O [XY-42]

Solution:
[60, 4.3, 46, 100, 41, 104, 86]

* * *

- TARGET ENTITY: PSMA (Homo sapiens (Human), UniProt Q04609)
- Sequence (Q04609 whole entry): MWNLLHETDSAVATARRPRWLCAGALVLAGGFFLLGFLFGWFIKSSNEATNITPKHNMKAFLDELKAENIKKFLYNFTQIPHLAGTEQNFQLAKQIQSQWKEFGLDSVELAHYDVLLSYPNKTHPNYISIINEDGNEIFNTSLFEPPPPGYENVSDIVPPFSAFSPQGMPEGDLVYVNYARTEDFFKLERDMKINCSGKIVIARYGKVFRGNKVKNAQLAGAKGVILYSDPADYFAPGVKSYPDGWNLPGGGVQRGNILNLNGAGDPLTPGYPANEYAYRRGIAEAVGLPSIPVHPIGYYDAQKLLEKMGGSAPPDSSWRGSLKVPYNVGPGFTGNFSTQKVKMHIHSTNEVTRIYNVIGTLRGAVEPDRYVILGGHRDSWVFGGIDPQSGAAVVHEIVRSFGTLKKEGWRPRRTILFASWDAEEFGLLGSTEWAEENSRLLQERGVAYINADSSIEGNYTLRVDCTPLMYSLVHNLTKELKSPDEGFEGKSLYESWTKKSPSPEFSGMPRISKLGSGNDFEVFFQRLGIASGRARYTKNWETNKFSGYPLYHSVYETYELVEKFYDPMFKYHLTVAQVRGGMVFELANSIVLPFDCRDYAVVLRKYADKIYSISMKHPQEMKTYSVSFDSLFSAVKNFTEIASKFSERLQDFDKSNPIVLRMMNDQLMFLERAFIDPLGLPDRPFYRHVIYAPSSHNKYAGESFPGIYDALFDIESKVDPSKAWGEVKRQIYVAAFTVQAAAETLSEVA
- TEST NAME: NAALADase assay: PSMA inhibitory activity, fluorescence-based Amplex Red Glutamic Acid assay, lysates of LNCaP cell extracts
- Assay type: biochemical
- PARTICULARS: read-out: Ki, PSMA inhibition
READOUT TYPE: Ki (nM)
Give bare numbers, in nM.

Field: example entries. Status: answers known.
O=CO[C@@H](CNC(=O)N[C@@H](CCC(=O)O)C(=O)O)NC(=O)CCCNC(=O)c1ccc(I)cc1F	0.02
O=C(O)CC[C@H](NC(=O)O[C@@H](CCCCNC(=O)c1ccc(I)cc1)C(=O)O)C(=O)O	0.9

Shifting focus to the compound that follows.
So for Cc1cc(Br)ccc1C(=O)NCCCC(=O)N[C@H](CNC(=O)N[C@@H](CCC(=O)O)C(=O)O)OC=O , the logged Ki turned out to be 0.04

* * *

Could you please report measured IC50 for the items listed next?
- TARGET ENTITY: PSMA (Homo sapiens (Human), UniProt Q04609)
- TEST NAME: NAALADase assay: PSMA inhibitory activity, fluorescence-based Amplex Red Glutamic Acid assay, lysates of LNCaP cell extracts
- PARTICULARS: Table 3
Answers are plain numbers, in nM.

CNC(=O)c1ccc(C(=O)NCCCC[C@H](OC(=O)N[C@@H](CCC(=O)O)C(=O)O)C(=O)O)cc1	1300

Could you tell me IC50 for each of these compounds? They are listed below.
1. CSc1ccc(C(=O)NCCCC(=O)N[C@H](CNC(=O)N[C@@H](CCC(=O)O)C(=O)O)C(=O)O)cc1
2. O=C(O)CC[C@H](NC(=O)O[C@@H](CCCCNC(=O)c1ccc(I)cc1F)C(=O)O)C(=O)O
3. O=C(O)CC[C@H](NC(=O)O[C@@H](CCNC(=O)c1ccc(F)cc1)C(=O)O)C(=O)O

Solution:
1: 1.3; 2: 1.6; 3: 4500

Each compound below has a recorded value; state its IC50.
1. O=C(O)CC[C@H](NC(=O)NC[C@@H](NC(=O)CCCNC(=O)c1ccc(-c2ccccc2)cc1F)C(=O)O)C(=O)O
2. O=C(O)CC[C@H](NC(=O)O[C@@H](CCCCNC(=O)c1ccc(Cl)cc1F)C(=O)O)C(=O)O
3. O=C(O)CC[C@H](NC(=O)O[C@@H](CCCCNC(=O)c1ccc(-c2ccc(OCCF)cc2)cc1)C(=O)O)C(=O)O
4. O=C(O)CC[C@H](NC(=O)NC[C@H](NC(=O)c1ccc(F)cc1)C(=O)O)C(=O)O
5. O=C(O)CC[C@H](NC(=O)NC[C@H](NC(=O)CCCNC(=O)c1ccc(F)cc1)C(=O)O)C(=O)O
6. O=C(O)CC[C@H](NC(=O)O[C@@H](CCCCNC(=O)c1ccc(F)cc1)C(=O)O)C(=O)O
7. COc1ccc(-c2ccc(C(=O)NCCCC[C@H](OC(=O)N[C@@H](CCC(=O)O)C(=O)O)C(=O)O)cc2)cc1

Solution:
1: 2; 2: 192; 3: 120; 4: 43000; 5: 8000; 6: 210; 7: 30

Answer for every listed entry: what is its IC50? The entries follow.
1. CC(=O)Nc1ccc(C(=O)NCCCC[C@H](OC(=O)N[C@@H](CCC(=O)O)C(=O)O)C(=O)O)cc1
2. O=C(O)CC[C@H](NC(=O)O[C@@H](CCCCNC(=O)c1ccc(I)cc1OCCCCNC(=O)c1ccc(I)cc1)C(=O)O)C(=O)O
3. CSc1ccc(C(=O)NCCCC[C@H](OC(=O)N[C@@H](CCC(=O)O)C(=O)O)C(=O)O)cc1

Solution:
[660, 3800, 24]

Values from patent US10736974B2
